tested on: HL-60(TB) leukemia; assay: NCI tumour cell line growth inhibition, 48 h; in the data active = GI50 below about 0.43 µM; inactive = the rest
Outcome codes: active, inactive

[[record]]
molecule = "Cn1c(=O)c(Oc2ccc(F)cc2F)cc2cnc(NC(C)(C)CO)nc21"
system_name = "HL-60(TB) leukemia"
label_value = "inactive"

[[record]]
molecule = "COc1ccc(C=Nc2c(C(=O)Nc3cccc(Cl)c3C)sc3nc(C)c(C(=O)/C=C/c4ccc(OC)cc4)cc23)cc1"
system_name = "HL-60(TB) leukemia"
label_value = "inactive"

[[record]]
molecule = "CCCCN1CCCC[C@@H]1C(=O)N[C@H](C(=O)N(C)[C@H](C[C@@H](OC(C)=O)c1nc(C(=O)NC2CCC(C(=O)OC)CC2)cs1)C(C)C)C(C)C (some centres undefined)"
system_name = "HL-60(TB) leukemia"
label_value = "inactive"

[[record]]
molecule = "CCCc1n(Cc2ccc3ccccc3c2)cc[n+]1Cc1ccc2ccccc2c1"
system_name = "HL-60(TB) leukemia"
label_value = "active"


---

system: HL-60(TB) leukemia; assay: NCI tumour cell line growth inhibition, 48 h
Overview of recorded TGI for various molecules
Parameter: TGI (µM)

[[record]]
test_smiles = "COc1ccc2c3c(Nc4cccc(/C(C)=N\\O)c4)[nH]c4ccccc4c-3c(N=O)c2c1"
system_name = "HL-60(TB) leukemia"
parameter = "TGI"
relation_symbol = ">"
measurement = 100

[[record]]
test_smiles = "Clc1cccc(-c2sc(-c3ccsc3)cc2Cc2ccsc2)c1"
system_name = "HL-60(TB) leukemia"
parameter = "TGI"
relation_symbol = ">"
measurement = 10

[[record]]
test_smiles = "CC1=CC(C)=NN=C(N)N1S(=O)(=O)c1cc(C)c(Cl)cc1SCc1ccccc1"
system_name = "HL-60(TB) leukemia"
parameter = "TGI"
relation_symbol = ">"
measurement = 100

[[record]]
test_smiles = "CC1(C)[C@@H]2CC[C@]1(C)[C@H](OC(=O)/C=C/c1ccccc1)C2"
system_name = "HL-60(TB) leukemia"
parameter = "TGI"
relation_symbol = "="
measurement = 40.5

[[record]]
test_smiles = "O=C(O)C[C@@H](Cl)[C@H](NC(=O)OCc1ccccc1)C(=O)O"
system_name = "HL-60(TB) leukemia"
parameter = "TGI"
relation_symbol = ">"
measurement = 100

[[record]]
test_smiles = "Cc1c2ccn(O)cc2c(C)c2c1nc1ccccc12"
system_name = "HL-60(TB) leukemia"
parameter = "TGI"
relation_symbol = "="
measurement = 38.3

[[record]]
test_smiles = "COc1cc2c3cc1Oc1c(OC)c(OC)cc4c1C(=NCC4)Cc1ccc(cc1)Oc1cc(ccc1O)C[C@H]3N(C)CC2"
system_name = "HL-60(TB) leukemia"
parameter = "TGI"
relation_symbol = "="
measurement = 96.5

[[record]]
test_smiles = "Cc1ccc(C(=O)Nc2ccc(CP(=O)(O)O)cc2)cc1NC(=O)c1cccc(N)c1"
system_name = "HL-60(TB) leukemia"
parameter = "TGI"
relation_symbol = ">"
measurement = 100

[[record]]
test_smiles = "CC(=O)Nc1cc2cc(N)ccc2oc1=O"
system_name = "HL-60(TB) leukemia"
parameter = "TGI"
relation_symbol = ">"
measurement = 100

[[record]]
test_smiles = "COc1c(C)cc2c(C(C)C)c(O)c(O)c(C=O)c2c1O"
system_name = "HL-60(TB) leukemia"
parameter = "TGI"
relation_symbol = "="
measurement = 58.3

